# Test system: SF-268 CNS
# ASSAY EXPLANATION: NCI tumour cell line growth inhibition, 48 h
Hi there, I'd appreciate the recorded TGI for every entry that follows.

// fetch TGI for O=c1c(O)cc2c(O)oc3c(=O)c(O)c(O)c4c(O)oc1c2c43 ; system: SF-268 CNS
> 100 µM

// fetch TGI for CCCCOC(=O)NC(Nc1ccc(S(=O)(=O)Nc2ncccn2)cc1)(C(F)(F)F)C(F)(F)F ; system: SF-268 CNS
> 100 µM

// fetch TGI for CC(=O)Oc1ccc(Nn2c3ccccc3c3ccccc32)c(C)c1 ; system: SF-268 CNS
> 100 µM

// fetch TGI for CCOC(=O)[C@@H](C)C[C@H](Cc1ccccc1)NC(=O)c1csc([C@@H](C[C@H](C(C)C)N(C)C(=O)[C@@H](NC(=O)[C@H]2C[C@H](O)CCN2C)C(C)C)OC(C)=O)n1 ; system: SF-268 CNS
> 16.7 µM

// fetch TGI for NC(=O)CCc1ccccc1Oc1nccc(-c2c(-c3ccc(F)cc3)ncn2C2CCNCC2)n1 ; system: SF-268 CNS
> 25 µM

// fetch TGI for N#C/C(=C\c1ccc(F)cc1)n1nc2cccc(F)c2n1 ; system: SF-268 CNS
> 100 µM

// fetch TGI for CN1C(=O)CN2C(Cl)(Cl)C2(c2ccccc2)c2cc(Cl)ccc21 (centres undefined) ; system: SF-268 CNS
> 100 µM

// fetch TGI for CN1CC=C(c2cccn2C)CC1 ; system: SF-268 CNS
> 100 µM

// fetch TGI for CC[C@@H]1CC[C@@H]2[C@H](CC[C@]3(C)[C@@H](OC(C)=O)CC[C@@H]23)[C@H]1C(=O)OC ; system: SF-268 CNS
81.1 µM

====

# Test system: SK-MEL-5 melanoma
# ASSAY EXPLANATION: NCI tumour cell line growth inhibition, 48 h
QUANTITY NAME: TGI

Read off the recorded TGI for COc1ccccc1N1C(=O)CSC1c1cc(OC)c(OC)c(OC)c1 (centres undefined)
> 100 µM

Read off the recorded TGI for O=C1CCCCC1C(O)(C(F)(F)F)C(F)(F)Cl (centres undefined)
> 10 µM

Read off the recorded TGI for OCCCc1cnco1
> 100 µM

Read off the recorded TGI for C/C(=C\CNc1ncnc2c1ncn2CCC(=O)OC(C)(C)C)CO
> 100 µM

Read off the recorded TGI for CC1CCC2CC1NC(=O)CCOCCC(=O)NC2(C)C (centres undefined)
> 100 µM

Read off the recorded TGI for C=C(CN1CCN(c2ccccc2C(F)(F)F)CC1)c1ccc(C(=O)Nc2ccccc2N)cc1
9.83 µM

Read off the recorded TGI for CN(C)CC1CCCCCCCCCCCCC(CN(C)C)C1=O (centres undefined)
27.8 µM

Read off the recorded TGI for Cc1[nH]c2nc3c(ncn3COCCO)c(=O)n2c1C(c1ccccc1)(c1ccccc1)c1ccccc1
29.4 µM

Read off the recorded TGI for NC(=N\N=C/c1ccc(Cl)cc1Cl)/C(N)=N\N=C/c1ccc(Cl)cc1Cl
> 100 µM

Read off the recorded TGI for COc1ccccc1NC(=O)C(=O)Cc1cnc2ccccc2n1
> 100 µM

Read off the recorded TGI for O=C(O)CCC1CCc2cccc(OCC(=O)O)c2C1=O (centres undefined)
> 100 µM

Read off the recorded TGI for COc1ccc(C2CC(c3ccc4ccccc4c3)=NN2c2nc(O)c(C3=c4cc(OC)ccc4=NC3=O)s2)cc1 (centres undefined)
0.243 µM

Read off the recorded TGI for O=c1[nH]c2ccccc2n2cc3ccccc3c12
14.9 µM

Read off the recorded TGI for O=C1C=CC(=O)c2cc(Sc3ccccc3)c(=O)c(Sc3ccccc3)cc21
> 100 µM

====

# Tested on: SK-MEL-2 melanoma
# ASSAY EXPLANATION: NCI tumour cell line growth inhibition, 48 h
QUANTITY NAME: TGI

Read off the recorded TGI for Cn1nc(-c2ccccc2)c2c(-c3ccccc3)c3cc(Cl)ccc3nc21
> 100 µM

Read off the recorded TGI for CC1(C)OC2C(CO)OC(n3ccc(N)nc3=O)C2O1 (stereo unspecified)
> 100 µM

Read off the recorded TGI for O=C(Cc1ccccc1)NN1C(=O)C(Cl)C1c1cccc([N+](=O)[O-])c1 (stereo unspecified)
> 73.8 µM

Read off the recorded TGI for NC(Cc1ccccc1)c1nn[nH]n1 (stereo unspecified)
> 100 µM

Read off the recorded TGI for CC(=O)N(CCN1C(=O)c2ccccc2C1=O)CCN1C(=O)c2ccccc2C1=O
> 100 µM

Read off the recorded TGI for N#C/C(=C\c1ccc(F)cc1)n1nc2cccc(F)c2n1
> 100 µM

Read off the recorded TGI for O=C(c1cccs1)c1nc2cc(Cl)ccc2[n+]([O-])c1C(F)(F)F
> 100 µM

Read off the recorded TGI for c1ccc(-c2cn(-c3ccccc3)c(-c3ccccc3)n2)cc1
27.2 µM

Read off the recorded TGI for NCCCn1c2c(c3ccc([N+](=O)[O-])cc3c1=O)C(=O)c1cc(F)ccc1-2
1.05 µM

Read off the recorded TGI for Fc1ccc(C2SCc3nc4ccccc4n32)cc1F (stereo unspecified)
63.7 µM

Read off the recorded TGI for Cc1cc2c(cc1C)[n+](=O)c(C(=O)CC(=O)C(=O)Nc1ccccc1C(C)C)c(C)n2[O-]
> 100 µM

Read off the recorded TGI for O=[N+]([O-])/C=C/c1cc2ccc3ccccc3c2[nH]1
2.39 µM

Read off the recorded TGI for CCCNCC(O)CNc1ccc(NCC(O)CNCCC)c2c1C(=O)c1ccccc1C2=O (stereo unspecified)
5.22 µM

Read off the recorded TGI for CC(C)(CN1CCCCC1)C(=O)CC(SCCN)c1ccc(Cl)cc1 (stereo unspecified)
3.32 µM

Read off the recorded TGI for COC(=O)[C@]1(C)CCC[C@]2(C)[C@@H](CCC(=O)C(C)C)[C@]3(C=O)O[C@@H]3C[C@H]21
> 100 µM

Read off the recorded TGI for CCP(=O)(CC)C(Cl)(Cl)C(O)C(Cl)(Cl)Cl (stereo unspecified)
> 100 µM

Read off the recorded TGI for C=C1CC(C)(COc2cc(=O)oc3ccccc23)OC1=O (stereo unspecified)
11.8 µM

Read off the recorded TGI for O=P(CCOc1ccccc1OCCP(=O)(c1ccccc1)c1ccc2c(c1)OCCOCCOCCOCCO2)(c1ccccc1)c1ccc2c(c1)OCCOCCOCCOCCO2 (stereo unspecified)
> 100 µM

Read off the recorded TGI for Cc1cccc2c1c(=O)c1c(O)cc3c(c1n2C)C=CC(C)(C)O3
> 100 µM

Read off the recorded TGI for Cc1ccc(C(=O)N2CCCCC2)cc1N=NN(C)C
> 100 µM

Read off the recorded TGI for Cn1c(=O)c2[nH]c(CCCc3ccc([N+](=O)[O-])cc3)nc2n(C)c1=O
> 100 µM

====

# Test system: SN12C renal
# ASSAY EXPLANATION: NCI tumour cell line growth inhibition, 48 h
Outcome: True for TGI of at least 50 µM; False for anything lower.

Evaluate O=C1C=CC(=O)c2cc(Sc3ccccc3)c(=O)c(Sc3ccccc3)cc21 : TGI at minimum 50 µM?
True

Evaluate O=C1Nc2ccccc2/C1=C\c1c(-c2ccccc2)nc2n1CCS2 : TGI at minimum 50 µM?
True

Evaluate O=C1C=CC(=O)N1c1ccc(I)cc1 : TGI at minimum 50 µM?
False

Evaluate CCC(C)CC(C)C(=O)c1c(O)ccn(O)c1=O (stereo not given) : TGI at minimum 50 µM?
False

Evaluate OCC1OC(n2cnc3c(SCc4ccccc4)ncnc32)C(O)C1O (stereo not given) : TGI at minimum 50 µM?
True

Evaluate Cc1cc(=O)oc2cc(OC(=O)Nc3ccccc3)ccc12 : TGI at minimum 50 µM?
True

Evaluate CN(C)CC1CCCCCCCCCCCCC(CN(C)C)C1=O (stereo not given) : TGI at minimum 50 µM?
False

Evaluate CCN(CC)C(=S)N/N=C/c1cc(OC)ccc1O : TGI at minimum 50 µM?
True

Evaluate C/C(=N/NC(=S)N1CC2CCC(CC2)C1)c1cnccn1 : TGI at minimum 50 µM?
False

Evaluate FC(F)(F)c1ccc(-c2ncc(-c3ccc(C(F)(F)F)cc3)c(NCc3cc(C(F)(F)F)cc(C(F)(F)F)c3)n2)cc1 : TGI at minimum 50 µM?
True

====

# System: SF-268 CNS
# ASSAY EXPLANATION: NCI tumour cell line growth inhibition, 48 h
Hi there, I'd appreciate the recorded TGI for every entry that follows.

Read off the recorded TGI for c1ccc(-c2cn(-c3ccccc3)c(-c3ccccc3)n2)cc1
29.5 µM

Read off the recorded TGI for CCOC(=O)/C(=C/c1ccccc1Br)P(=O)(OCC)OCC
10.5 µM

Read off the recorded TGI for O=C1CCCC2=C1CC1=C(CCCC1=O)N2c1ccc([N+](=O)[O-])cc1
> 100 µM

Read off the recorded TGI for COC(=O)[C@H](COC(C)(C)C)NC(=O)N[C@H](C)c1ccccc1
> 100 µM

Read off the recorded TGI for N#Cc1c2ccccc2c2nnc3ccccc3n12
> 100 µM

Read off the recorded TGI for O=C1NC(=O)C(c2ccccc2)=C1Nc1ccccc1
> 25 µM

Read off the recorded TGI for CN(C)CCN(C)C(=O)C1CCCN1C(=O)OCc1ccccc1 (configuration not stated)
> 100 µM

Read off the recorded TGI for CCCCN(CC)CCCCCCCCCCN1CCCc2cc(OC)ccc21
32.1 µM

Read off the recorded TGI for Cc1c2ccccc2c(C2C3C(=O)N(c4cccc5ccccc45)C(=O)C3ON2Cc2ccc(CC(N)=O)cc2)c2ccccc12 (configuration not stated)
> 50 µM

Read off the recorded TGI for Brc1ccc(Nc2nc3ccccc3nc2Nc2ccc(Br)cc2)cc1
13.3 µM

Read off the recorded TGI for CC(C)OCc1cc(CN2CCN(c3cccc(Cl)c3)CC2)c(O)c2ncccc12
14.7 µM

Read off the recorded TGI for CCC(c1ccc(OC)cc1)C1NC(=S)NC1=O (configuration not stated)
> 50 µM

Read off the recorded TGI for O=C(c1ccccc1)C(Nc1ccc2ccccc2c1)c1ccccc1 (configuration not stated)
> 100 µM

Read off the recorded TGI for O=C(Oc1c(Br)cc(Br)cc1C(=O)Oc1ccccc1)C(=O)Oc1c(Br)cc(Br)cc1C(=O)Oc1ccccc1
> 100 µM

Read off the recorded TGI for CN1CCN(c2ccc3[nH]c(C4=C(O)C(=O)[C@@H]5C(=C4O)N=C(CO)N5C)nc3n2)CC1
> 100 µM

Read off the recorded TGI for Cc1c(-c2nc(N)c(C#N)c(N)c2C#N)c(=O)oc2ccccc12
> 100 µM

Read off the recorded TGI for CCOC(=O)Nc1n[nH]nc1Cl
> 100 µM

Read off the recorded TGI for COc1cc2c3c(n(CCCN4CCCNCC4)c(=O)c2cc1OC)-c1cc2c(cc1C3=O)OCO2
11.2 µM

Read off the recorded TGI for NC(=S)N/N=C(\CCC(=O)Nc1ccccc1[N+](=O)[O-])CC(=O)c1ccco1
> 100 µM

Read off the recorded TGI for O=C(NCCc1ccccc1)c1cc(/C=C/c2cc(O)ccc2O)ccc1O
10.2 µM

Read off the recorded TGI for O=c1oc2ccc3ccccc3c2cc1-c1cn2c(n1)sc1ccccc12
> 100 µM

Read off the recorded TGI for O=C(Nc1ccccc1)c1cccc([N+](=O)[O-])c1
> 100 µM

All values here come from PubChem BioAssay (NCI).
